target-desc: Dolichyl-diphosphooligosaccharide--protein glycosyltransferase subunit 1 (Saccharomyces cerevisiae)
Sequence (P41543 whole entry): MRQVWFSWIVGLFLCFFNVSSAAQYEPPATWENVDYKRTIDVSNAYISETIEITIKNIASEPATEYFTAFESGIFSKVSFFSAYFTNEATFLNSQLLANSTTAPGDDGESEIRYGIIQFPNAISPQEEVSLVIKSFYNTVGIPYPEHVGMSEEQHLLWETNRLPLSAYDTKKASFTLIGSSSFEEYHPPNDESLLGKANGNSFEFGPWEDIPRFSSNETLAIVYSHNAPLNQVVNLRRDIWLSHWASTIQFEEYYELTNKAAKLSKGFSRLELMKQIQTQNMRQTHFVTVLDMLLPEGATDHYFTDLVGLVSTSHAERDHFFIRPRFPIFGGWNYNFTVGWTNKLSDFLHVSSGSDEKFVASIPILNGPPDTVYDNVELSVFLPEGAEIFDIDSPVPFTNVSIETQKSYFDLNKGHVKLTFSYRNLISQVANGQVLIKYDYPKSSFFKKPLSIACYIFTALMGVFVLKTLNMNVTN
assay-details: Competition Assay
conditions: pH 7.5; 0 °C
pKi: −log10 of the molar value.
test-readout: pKi

I: COc1ccc(NS(=O)(=O)c2ccc(NC(=O)C(CCSC)NC(N)=O)cc2)cc1 (stereo not given)
II: COC(=O)c1ccc(O)c2nc3c(C=O)c(O)cc(O)c3nc12
III: O=C(Nc1ccc(C2=NCCN2)cc1)c1ccc(C(=O)Nc2ccc(C3=NCCN3)cc2)c(Cl)c1
IV: COc1ccc(OC)c(Nc2nc(NCCCN(C)C)nc(N)c2[N+](=O)[O-])c1
Sort by pKi with smallest numbers at the start of the list. Arrange the labels as the request states and list them.
I, III, IV, II
(I: 4.47, III: 5.40, IV: 5.96, II: 7.21)
